Origin of the recorded values: paper PMC5842274

# runDescription: Pharmacokinetic pilot study, YM155 in blood/plasma after single i.v. administration
# Type: in vivo, mice
# conditionsUsed: female, NMRI nu/nu, mouse, plasma, iv; single i.v. 1 mg/kg, NCA
# Description: Animal experiments were conducted in compliance with the national regulations and have been approved by the local ethical committee for animal experimentation. NMRI nu/nu female mice (25 g, Charles River, Massachusetts, USA) were housed in a temperature-controlled room (approximately 22°C) with 55 to 65% relative humidity, a photoperiod of 12/12 h with free access to water and pelleted rodent food. […]
readoutLabel: clearance

Input line: Give reported clearance value for COCCn1c2c([n+](Cc3cnccn3)c1C)C(=O)c1ccccc1C2=O [YM155, Sepantronium bromide]
Output line: 122 mL/min/kg
